The measurements presented in this section are drawn from PubChem BioAssay (NCI).

Test system: NCI/ADR-RES ovarian
test.description: NCI tumour cell line growth inhibition, 48 h
Provide the reported TGI of each item.

Tested system NCI/ADR-RES ovarian; TGI recorded for COc1cc(C(C)O)c(S(=O)(=O)CC(C)O)nn1 (stereo not given) was > 100 µM

Tested system NCI/ADR-RES ovarian; TGI recorded for C=C1C(=O)O[C@H]2C[C@@]3(COC(C)=O)C=COC=C(COC(=O)C(C)C)C3CC12 (stereo not given in full) was > 100 µM

Tested system NCI/ADR-RES ovarian; TGI recorded for `O=C(/C=C/c1ccccc1)CSc1ncn[nH]1` was > 100 µM

Tested system NCI/ADR-RES ovarian; TGI recorded for `COc1ccc(-c2cs/c(=N\N=C\c3ccc(O)cc3O)n2/N=C/c2ccc(O)cc2O)cc1` was 5.35 µM

Tested system NCI/ADR-RES ovarian; TGI recorded for `CCOC(=O)c1nnsc1N/N=C\c1ccc([N+](=O)[O-])cc1` was > 100 µM

Tested system NCI/ADR-RES ovarian; TGI recorded for `CC(C)(C)OC(=O)N(CCCCNC(=O)OCc1ccccc1)CCCNC(=O)OCc1ccccc1` was > 100 µM

Tested system NCI/ADR-RES ovarian; TGI recorded for `CC1=NC2=Nc3nc(C)cc[n+]3CN2C=C1` was > 100 µM

Tested system NCI/ADR-RES ovarian; TGI recorded for `CC(=N\N)/C(C)=N/N=C(C)/C(C)=N/N` was > 100 µM

Tested system NCI/ADR-RES ovarian; TGI recorded for `Cc1nc(C)c(N2CCN(S(=O)(=O)N(Cc3ccccc3)Cc3ccccc3)CC2)c(=O)[nH]1` was > 100 µM

Tested system NCI/ADR-RES ovarian; TGI recorded for `CN(Cc1cnc2nc(N)nc(N)c2n1)c1ccc(C(=O)N[C@@H](CCC(=O)O)C(=O)O)cc1` was > 250 µM

Tested system NCI/ADR-RES ovarian; TGI recorded for `CCOC(=O)Nc1nc2ccc(OC)cc2s1` was > 100 µM

Tested system NCI/ADR-RES ovarian; TGI recorded for COC(=O)C1C(O)CCC2CN3CCc4c([nH]c5ccccc45)C3CC21 (stereo not given) was > 100 µM

Tested system NCI/ADR-RES ovarian; TGI recorded for COc1c(/C=C/C(C)(C)O)cc(C2CC(=O)c3c(O)cc(O)cc3O2)cc1CC=C(C)C (stereo not given) was 32 µM

Tested system NCI/ADR-RES ovarian; TGI recorded for `COC(=O)c1ccc(/C=C2\Oc3ccccc3C2=O)cc1` was > 100 µM

Tested system NCI/ADR-RES ovarian; TGI recorded for `Cc1cnc2sn(-c3ccc([N+](=O)[O-])cc3)c(=O)c2c1` was > 100 µM

Tested system NCI/ADR-RES ovarian; TGI recorded for `Cc1ccc(/C=N/n2c(-c3ccc(C)cc3)n[nH]c2=O)cc1` was > 100 µM

Tested system NCI/ADR-RES ovarian; TGI recorded for CN(CCCCCl)P(=O)(OCCS(=O)(=O)CC(NC(=O)CCC(N)C(=O)O)C(=O)NC(C(=O)O)c1ccccc1)OCC1OC(n2ccc(N)nc2=O)C(F)(F)C1O (stereo not given) was > 62.8 µM

Tested system NCI/ADR-RES ovarian; TGI recorded for O=C1/C(=C\c2cccc(Oc3ccccc3)c2)SC(c2ccccc2)N1c1ccccc1 (stereo not given) was > 100 µM

Tested system NCI/ADR-RES ovarian; TGI recorded for `CC(C)c1c(-c2ccccc2)nc2c(C#N)c[nH]n2c1=O` was > 100 µM

Tested system NCI/ADR-RES ovarian; TGI recorded for `COC(=O)c1cc2c3ccccc3n3c(=O)c4cc5ccc(N(S(=O)(=O)c6ccc(C)cc6)S(=O)(=O)c6ccc(C)cc6)cc5nc4c(n1)c23` was > 100 µM
